MEASURED ON: human arginase I (Homo sapiens)
Sequence (P05089 whole entry): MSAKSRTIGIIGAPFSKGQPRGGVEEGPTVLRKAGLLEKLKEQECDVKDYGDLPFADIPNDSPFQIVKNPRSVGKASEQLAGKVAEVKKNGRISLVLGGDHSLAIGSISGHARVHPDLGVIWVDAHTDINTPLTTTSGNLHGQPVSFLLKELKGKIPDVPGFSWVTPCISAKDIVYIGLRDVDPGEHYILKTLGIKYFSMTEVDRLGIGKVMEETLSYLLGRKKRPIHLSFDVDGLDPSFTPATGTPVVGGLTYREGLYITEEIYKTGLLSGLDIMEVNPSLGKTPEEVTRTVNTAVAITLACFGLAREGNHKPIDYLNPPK
TEST DESCRIPTION: Arginase inhibition, QuantiChrom colorimetric urea assay, IC50 converted to Ki
Format: biochemical
EXPERIMENTAL PARAMETERS: Table 2; pH 9.5; read-out: human arginase I pH 9.5, Ki assigned value
pKi: −log10 of the molar value. Structures can show the parent of a compound that is named as a salt.
REPORTED ENDPOINT: pKi

Req: Consider the compound shown here: NC(CCCCB(O)O)(CCCC1CCN(Cc2ccc(F)cc2)CC1)C(=O)O (stereo not drawn) [Comparative Example 3, reference compound] What is its recorded pKi?
Resp: 7.30 to 7.96

Req: Return reported pKi; argument: NC(CCCCB(O)O)(CCCN1CCNCC1)C(=O)O (stereo not drawn) [Comparative Example 4, trifluoroacetate salt, reference compound]
Resp: 7.00 to 7.29

Req: Name the recorded pKi for NC(CCCCB(O)O)(CCCN1CCC(Cc2ccc(F)c(F)c2)CC1)C(=O)O (stereo not drawn) [Example 28] .
Resp: > 8.00

Req: # query: pKi of entry NC(CCCCB(O)O)(CCCC1CCN(Cc2ccc(Cl)c(Cl)c2)CC1)C(=O)O (stereo not drawn) [Comparative Example 2, reference compound]
Resp: 7.30 to 7.96

Req: Entry NC(CCCCB(O)O)(CCCN1CCN(Cc2ccc(Cl)c(Cl)c2)CC1)C(=O)O (stereo not drawn) [Example 8] : reported pKi = ?
Resp: 7.30 to 7.96

Req: Need pKi, item NC(CCCCB(O)O)(CCCN1CCCCC1c1ccc(F)cc1)C(=O)O (stereo not drawn) [Example 17]
Resp: 7.30 to 7.96

Req: For NC(CCCCB(O)O)(CCCC1CCNCC1)C(=O)O (stereo not drawn) [Comparative Example 1, reference compound] , what is its reported pKi?
Resp: 7.30 to 7.96

Req: For NC(CCCCB(O)O)(CCCN1CCN(Cc2ccc(F)cc2)CC1)C(=O)O (stereo not drawn) [Example 11] , what is its reported pKi?
Resp: 7.30 to 7.96

Req: Tell me the measured pKi of N[C@@H](CCCCB(O)O)C(=O)O [ABH, 2(S)-amino-6-boronohexanoic acid] , please.
Resp: 7.30 to 7.96

----------
System: Arg I and/or Arg II
TEST DESCRIPTION: pH effect: inhibitory potency at pH 7.5 compared with pH 9.5
Type: biochemical, human
EXPERIMENTAL PARAMETERS: both or at least one of the arginases
REPORTED ENDPOINT: potency at pH 7.5 as compared to pH 9.5, arginases

COMPOUND	OBSERVED VALUE
NC(CCCCB(O)O)(CCCC1CCN(Cc2ccc(Cl)c(Cl)c2)CC1)C(=O)O (stereo not shown) [Comparative Example 2, reference compound]	decreased potencies
NC(CCCCB(O)O)(CCCC1CCN(Cc2ccc(F)cc2)CC1)C(=O)O (stereo not shown) [Comparative Example 3, reference compound]	decreased potencies

----------
For each record, write down the corresponding Ki.
MEASURED ON: human arginase I (Homo sapiens)
TEST DESCRIPTION: Arginase inhibition, QuantiChrom colorimetric urea assay, IC50 converted to Ki
Format: biochemical
EXPERIMENTAL PARAMETERS: Table 2; pH 7.5; read-out: human arginase I pH 7.5, Ki assigned value
Description: For some compounds, their inhibitory potency at pH 7.5 was compared to the inhibitory potency of ABH at pH 7.5. Quantitative determination of arginase activity was performed in a 96-well format by a colorimetric method using the QuantiChrom™ Arginase Assay Kit available from BioAssay Systems (Hayward, Calif., Catalog No. DARG-200) according to the manufacturer's protocol. Modifications were made to reagent quantities to suit the assaying of a highly purified sample. […]
Structures can show the parent of a compound that is named as a salt.

Req: What value of Ki has been recorded for this entry: NC(CCCCB(O)O)(CCCN1CCN(Cc2ccc(Cl)c(Cl)c2)CC1)C(=O)O (stereo not drawn)
Resp: < 10 nM

Req: Any idea what Ki was measured for NC(CCCCB(O)O)(CCCC1CCN(Cc2ccc(F)cc2)CC1)C(=O)O (stereo not drawn) [Comparative Example 3, reference compound] ?
Resp: 251 to 400 nM

Req: Would you kindly share the measured Ki for NC(CCCCB(O)O)(CCCN1CCCCC1c1ccc(F)cc1)C(=O)O (stereo not drawn) ?
Resp: < 10 nM

Req: Name the recorded Ki for N[C@@H](CCCCB(O)O)C(=O)O [ABH, 2(S)-amino-6-boronohexanoic acid] .
Resp: 51 to 100 nM

Req: GET /values?readout=Ki&item= NC(CCCCB(O)O)(CCCN1CCNCC1)C(=O)O (stereo not drawn) [Comparative Example 4, trifluoroacetate salt, reference compound]
Resp: 11 to 50 nM

Req: Dear colleague, I am looking for the recorded Ki of the following compound: NC(CCCCB(O)O)(CCCC1CCN(Cc2ccc(Cl)c(Cl)c2)CC1)C(=O)O (stereo not drawn) [Comparative Example 2, reference compound]
Resp: 101 to 250 nM

Req: So what's the measured Ki for this one? NC(CCCCB(O)O)(CCCN1CCC(Cc2ccc(F)c(F)c2)CC1)C(=O)O (stereo not drawn)
Resp: < 10 nM

Req: Look up Ki: NC(CCCCB(O)O)(CCCC1CCNCC1)C(=O)O (stereo not drawn) [Comparative Example 1, reference compound]
Resp: 101 to 250 nM

Req: Reported Ki for NC(CCCCB(O)O)(CCCN1CCN(Cc2ccc(F)cc2)CC1)C(=O)O (stereo not drawn) : what is it?
Resp: < 10 nM

----------
MEASURED ON: human arginase II (Homo sapiens, UniProt P78540)
Sequence (P78540 23-354): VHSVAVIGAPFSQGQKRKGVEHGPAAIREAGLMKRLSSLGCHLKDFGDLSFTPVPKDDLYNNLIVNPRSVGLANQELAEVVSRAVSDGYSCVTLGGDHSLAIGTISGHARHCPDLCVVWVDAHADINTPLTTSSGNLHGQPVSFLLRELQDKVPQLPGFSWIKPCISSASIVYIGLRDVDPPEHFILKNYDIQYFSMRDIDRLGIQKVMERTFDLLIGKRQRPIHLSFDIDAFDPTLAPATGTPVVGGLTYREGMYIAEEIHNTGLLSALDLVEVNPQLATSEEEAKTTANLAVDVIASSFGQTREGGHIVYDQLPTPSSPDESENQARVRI
TEST DESCRIPTION: Arginase inhibition, QuantiChrom colorimetric urea assay, IC50 converted to Ki
Format: biochemical
EXPERIMENTAL PARAMETERS: Table 3; pH 7.5; read-out: human Arginase II pH 7.5, Ki assigned value
Field: Ki. Provide a value for each of the compounds that follow.

Req: # query: Ki of entry COc1ccc(C2CCN(CCCC(N)(CCCCB(O)O)C(=O)O)CC2)cc1 (stereo not shown)
Resp: < 10 nM

Req: Could you share which Ki value was measured for NC(CCCCB(O)O)(CCCN1CCOCC1)C(=O)O (stereo not shown) ?
Resp: 11 to 50 nM

Req: Given NC(CCCCB(O)O)(CCCN1CCCC(c2ccccc2)C1)C(=O)O (stereo not shown) , state its recorded Ki.
Resp: < 10 nM

Req: Requested read-out: Ki. Entry: NC(CCCCB(O)O)(CCCCN1CCN(c2ccc(Cl)c(Cl)c2)CC1)C(=O)O (stereo not shown)
Resp: < 10 nM

Req: Which Ki reading was recorded for the compound NC(CCCCB(O)O)(CCCN1CCC(Nc2ccccc2)CC1)C(=O)O (stereo not shown) ?
Resp: < 10 nM

Req: I am curious: what Ki value has been reported for NC(CCCCB(O)O)(CCCN1CCN(Cc2cccc(C(F)(F)F)c2)CC1)C(=O)O (stereo not shown) ?
Resp: 11 to 50 nM

Req: Given the compound NC(CCCCB(O)O)(CCCCN1CCc2ccccc2C1)C(=O)O (stereo not shown) , what is its reported Ki?
Resp: 11 to 50 nM

Req: Tell me the measured Ki of NC(CCCCB(O)O)(CCC1CCCCN1Cc1ccc(F)c(F)c1)C(=O)O (stereo not shown) , please.
Resp: 51 to 100 nM

Req: Request the reported Ki associated with NC(CCCCB(O)O)(CCCN1CCC(Oc2ccc(C(F)(F)F)cc2)CC1)C(=O)O (stereo not shown)
Resp: < 10 nM

Req: Given the compound NC(CCCCB(O)O)(CCCNCCc1ccccc1)C(=O)O (stereo not shown) , what is its reported Ki?
Resp: < 10 nM

Req: // returns reported Ki for input NC(CCCCB(O)O)(CCCN1CC(NC(=O)Nc2ccc(Cl)c(Cl)c2)C1)C(=O)O (stereo not shown)
Resp: < 10 nM

Req: # get_value(readout='Ki', item= NC(CCCCB(O)O)(CCCN1C2CCC1CC(n1cnc3ccccc31)C2)C(=O)O (stereo not shown) )
Resp: < 10 nM

Req: Which Ki is listed for NC(CCCCB(O)O)(CCCCN1CCNCC1)C(=O)O (stereo not shown) ?
Resp: > 400 nM

Req: Requested field: Ki. Item: NC(CCCCB(O)O)(CCCN1CCC(NS(=O)(=O)c2ccc(Cl)c(Cl)c2)C1)C(=O)O (stereo not shown)
Resp: < 10 nM

Req: # get_value(readout='Ki', item= NC(CCCCB(O)O)(CCCN1CC(c2ccccc2)C1)C(=O)O (stereo not shown) )
Resp: 11 to 50 nM

Req: Consider the compound shown here: NC(CCCCB(O)O)(CCCN1CCN(c2ccc(C(F)(F)F)cn2)CC1)C(=O)O (stereo not shown) What is its recorded Ki?
Resp: < 10 nM

Req: Tell me the measured Ki of NC(CCCCB(O)O)(CCCN1CCN(C(=O)c2ccc(Cl)c(Cl)c2)CC1)C(=O)O (stereo not shown) , please.
Resp: 251 to 400 nM

Req: Recorded Ki for CN1CCN(CCCC(N)(CCCCB(O)O)C(=O)O)C(c2ccccc2)C1 (stereo not shown) , please?
Resp: 11 to 50 nM

Req: Form field: reported Ki of CN1CCN(CCCC(N)(CCCCB(O)O)C(=O)O)CC1 (stereo not shown)
Resp: 11 to 50 nM

Req: // query Ki value for entry NC(CCCCB(O)O)(CCCN1CCC(NC(=O)Nc2ccc(Cl)c(Cl)c2)C1)C(=O)O (stereo not shown)
Resp: < 10 nM

Req: So what does the record say about Ki for NC(CCCCB(O)O)(CCCN1CCC(O)(Cc2ccccc2)CC1)C(=O)O (stereo not shown) ?
Resp: < 10 nM

Req: Using the record for CN(CCCC(N)(CCCCB(O)O)C(=O)O)CCc1ccccc1 (stereo not shown) , report its Ki.
Resp: 11 to 50 nM

Req: What does the record list as Ki for NC(CCCCB(O)O)(CCCCN1CCC(Cc2ccc(F)c(F)c2)CC1)C(=O)O (stereo not shown) ?
Resp: 11 to 50 nM

Req: Fill in the blank: the reported Ki of CN(CCCC(N)(CCCCB(O)O)C(=O)O)Cc1ccc2ccccc2c1 (stereo not shown) is ____.
Resp: < 10 nM

Req: Give the measured Ki of NC(CCCCB(O)O)(CCCN1CCSCC1)C(=O)O (stereo not shown) .
Resp: 11 to 50 nM

Req: Any idea what its Ki is? The compound is NC(CCCCB(O)O)(CCCN1CCC1)C(=O)O (stereo not shown)
Resp: 11 to 50 nM

Req: Entry NC(CCCCB(O)O)(CCCN1CCc2ccccc2C1)C(=O)O (stereo not shown) : reported Ki = ?
Resp: < 10 nM

Req: Would you kindly share the measured Ki for NC(CCCCB(O)O)(CCCN1CCC(O)(c2ccc(Cl)cc2)CC1)C(=O)O (stereo not shown) ?
Resp: < 10 nM

Req: Fill in: Ki of CN(CCCC(N)(CCCCB(O)O)C(=O)O)C1CCCCC1 (stereo not shown) is ___
Resp: 51 to 100 nM

Req: Look up Ki: NC(CCCCB(O)O)(CCCN1CCN(Cc2cccc(F)c2F)CC1)C(=O)O (stereo not shown)
Resp: 11 to 50 nM

Req: Any idea what Ki was measured for NC(CCCCB(O)O)(CCC1CCCCN1Cc1cc(F)cc(F)c1)C(=O)O (stereo not shown) ?
Resp: 101 to 250 nM

Req: Given the entry NC(CCCCB(O)O)(CCN1CCN(Cc2ccc(Cl)c(Cl)c2)CC1)C(=O)O (stereo not shown) , report its measured Ki.
Resp: > 400 nM

Req: Data request, read-out Ki, for NC(CCCCB(O)O)(CCCN1CCN(CCc2ccccc2)CC1)C(=O)O (stereo not shown)
Resp: < 10 nM

Req: I'd like to know its Ki. The compound in question is NC(CCCCB(O)O)(CCCN1CCC(C(=O)c2ccc(F)cc2)CC1)C(=O)O (stereo not shown)
Resp: < 10 nM

Req: Consider the compound shown here: CN(C)CCNCCCC(N)(CCCCB(O)O)C(=O)O (stereo not shown) What is its recorded Ki?
Resp: < 10 nM

Req: I am curious: what Ki value has been reported for CS(=O)(=O)c1ccc(CN2CCN(CCCC(N)(CCCCB(O)O)C(=O)O)CC2)cc1 (stereo not shown) ?
Resp: 11 to 50 nM

Req: Entry NC(CCCCB(O)O)(CCCN1CCCC1c1ccccc1C(F)(F)F)C(=O)O (stereo not shown) : reported Ki = ?
Resp: 11 to 50 nM
